Molecular target: Hexose transporter 1 (Plasmodium falciparum)
Experiment: ST_JUDE_LEISH: Cytotoxicity at 2uM final concentration against transgenic Leishmania Mexicana promastigotes LmPfHT that are glucose transport deficient and complemented with the Plasmodium falciparum hexose transporter. Activity is measured by DNA content using SYBR green in vitro
Format: functional
Listing of recorded inhibition by entry.

{"compound": "COc1cccc([C@@H](CC(=O)Nc2cc(C(F)(F)F)ccc2OC)Nc2ccc(C#N)c3ccccc23)c1", "inhibition / %": 5.34}
{"compound": "O=C(Nc1ccc(-c2nc3ccccc3[nH]2)cc1)c1cccc(S(=O)(=O)N2CCCC2)c1", "inhibition / %": 2.8}
{"compound": "COc1ccc2[nH]c(C)cc(=NN=Cc3ccccc3F)c2c1", "inhibition / %": 2.87}
{"compound": "N=C1SC(=Cc2cn[nH]c2-c2ccc(F)cc2)C(=O)N1c1nccs1", "inhibition / %": 2.1}
{"compound": "CC(=O)Nc1ccc(C(=O)Nc2cccc(-c3ccc(-c4nc5ccccc5[nH]4)cc3)c2)cn1", "inhibition / %": 3.31}
{"compound": "O=C(/C=C/c1ccc(Cl)c(Cl)c1)NCCCCCN1CCCN(C(=O)Nc2cc(Cl)cc(Cl)c2)CC1", "inhibition / %": 3.85}
{"compound": "O=[N+]([O-])c1ccc(Oc2ccccc2CNCC2CCN(CC3CCCCC3)CC2)cc1", "inhibition / %": 15.7}
{"compound": "COc1ccc(CCN(Cc2cccs2)C(=O)c2cc3sccc3n2C)cc1OC", "inhibition / %": 0.45}
{"compound": "Cc1nc2ccccc2n1C1CC2CCC(C1)N2CCCC1(c2ccccc2)CCN(C(=O)OCc2ccccc2)CC1 (centres undefined)", "inhibition / %": 0.85}
{"compound": "CC(NC(=O)c1ccc(O)c(-c2ccc(Cl)c(Cl)c2)c1)C(=O)NCCN1CCCCC1 (centres undefined)", "inhibition / %": 1.71}
{"compound": "c1ccc(N2CCN(c3cc(-c4cccnc4)nc(-c4ccncc4)n3)CC2)nc1", "inhibition / %": 1.5}
{"compound": "O=C(Nc1ccc(-c2oc(C(=O)NCCc3cccc(Cl)c3)cc2-c2ccncc2)cc1)Nc1cccc(Cl)c1", "inhibition / %": 1.65}
{"compound": "CCOC(=O)c1cn(CC)c2cc(N3CCCCC3)c(F)cc2c1=O", "inhibition / %": 3.64}
{"compound": "Cc1cc(=O)c(C2CCC(c3ccc(Cl)cc3)CC2)c(C)[nH]1 (centres undefined)", "inhibition / %": 2.51}
{"compound": "COc1ccc(CNCc2ccc(-c3ccc(CNCCc4ccccc4)cn3)cc2)cn1", "inhibition / %": -0.51}
{"compound": "CC(=O)Nc1ccc(COc2ccc(Nc3ccnc4cc(-c5ccccn5)ccc34)cc2)cc1", "inhibition / %": 1.28}
{"compound": "c1ccc(C2CCN(Cc3ccc(-c4c[nH]c5nc(NC6CCCC6)ncc45)cc3)CC2)cc1", "inhibition / %": 2.07}
{"compound": "CN(C(=O)C(C)(C)Oc1ccc(Cl)cc1)C1CCN(CCCCCNC(=O)/C=C/c2ccc(Cl)c(Cl)c2)CC1", "inhibition / %": 2.76}
{"compound": "O=C(NCc1ccccc1F)c1ccc(N2CCC(NCc3cccc(-n4cccn4)c3)CC2)cc1", "inhibition / %": 3.43}

----------
Molecular target: Hexose transporter 1 (Plasmodium falciparum) (UniProt O97467)
Test: ST_JUDE_LEISH: Cytotoxicity at 2uM final concentration against transgenic Leishmania Mexicana promastigotes LmPfHT that are glucose transport deficient and complemented with the Plasmodium falciparum hexose transporter. Activity is measured by DNA content using SYBR green in vitro
Assay type: functional
Listing of recorded inhibition by entry.
quantity name: inhibition (%)

{"compound": "CC1(C)NC(N)=NC(=N)N1OCCOc1ccc2ccccc2c1", "unit of measurement": "%", "recorded value": -0.86}
{"compound": "COc1ccc2nccc([C@@H](O)CN3CCC(NC(=O)c4ccc(-c5ccc(C#N)cc5)cc4)CC3)c2c1", "unit of measurement": "%", "recorded value": 1.64}
{"compound": "O=C(/C=C/c1ccc(Cl)c(Cl)c1)NCCCCCN1CCC(CCNC(=O)Cc2ccc(Cl)cc2)CC1", "unit of measurement": "%", "recorded value": 0.82}
{"compound": "CCC(CC)CN1C(=O)C(c2ccccc2)(c2ccccc2)N=C1N", "unit of measurement": "%", "recorded value": 5.61}
{"compound": "O=C(Nc1ccc(N2CCN(Cc3ccccc3Cl)CC2)cc1)c1ccc([N+](=O)[O-])o1", "unit of measurement": "%", "recorded value": 51.2}
{"compound": "O=C(NCc1ccccn1)C(c1cc2ccccc2o1)N1CCN(C(c2ccccc2)c2ccccc2)CC1 (stereo not given)", "unit of measurement": "%", "recorded value": 2.14}
{"compound": "CC1(C)N=C(N)N=C(N)N1c1cccc(C(F)(F)F)c1", "unit of measurement": "%", "recorded value": -0.92}
{"compound": "CN1CCN(S(=O)(=O)c2ccc3nccc(Nc4ccc(Oc5ccccc5)cc4)c3c2)CC1", "unit of measurement": "%", "recorded value": -1.4}
{"compound": "NC(=O)c1ccsc1NC(=O)CNC(c1ccccc1)c1ccc(Cl)cc1 (stereo not given)", "unit of measurement": "%", "recorded value": 2.82}
{"compound": "CCc1cccc(OCC2CCCN(c3ccc(C(=O)NC4CC4)cn3)C2)c1 (stereo not given)", "unit of measurement": "%", "recorded value": 3.55}

----------
Target: Hexose transporter 1 (Plasmodium falciparum) (UniProt O97467)
Test: ST_JUDE_LEISH: Cytotoxicity at 2uM final concentration against transgenic Leishmania Mexicana promastigotes LmPfHT that are glucose transport deficient and complemented with the Plasmodium falciparum hexose transporter. Activity is measured by DNA content using SYBR green in vitro
Format: functional

{"smiles record": "Oc1ccc(Cc2ccccc2)cc1CNC1CCCCC1", "unit of measurement": "%", "inhibition": 1.57}
{"smiles record": "COc1ccc(CNCC(C)(C)c2nc(-c3ccc(Cl)c(O)c3)c(-c3ccncc3)[nH]2)cc1", "unit of measurement": "%", "inhibition": 0.9}
{"smiles record": "COc1ccc(-c2c3c(=O)n(C)c(=O)n(C)c3c3nnc4ccccc4n23)cc1", "unit of measurement": "%", "inhibition": 1.06}
{"smiles record": "Cc1c(F)cc(C(=O)NC2CC2)cc1-c1ccc2c(cnn2S(=O)(=O)c2cccs2)c1", "unit of measurement": "%", "inhibition": 5.11}
{"smiles record": "COc1ccc(Cn2ccc3c4c(N)nc(N)nc4ccc32)cc1", "unit of measurement": "%", "inhibition": 89.3}

----------
Listing of recorded inhibition by entry.
Target: Glucose transporter (Leishmania mexicana)
Assay: ST_JUDE_LEISH: Cytotoxicity at 2uM final concentration against transgenic Leishmania Mexicana promastigotes LmGT2 that are glucose transport deficient and complemented with the L. Mexicana glucose transporter 2. Activity is measured by DNA content using SYBR green in vitro
Format: functional
quantity name: inhibition (%)

{"compound": "COc1ccc(-c2nc3c(NCc4ccccc4)nccc3[nH]2)c(OC)c1", "recorded value": 2.67}
{"compound": "CCCCC(CC)NC(=O)[C@H]1CNCCN1C(=O)CCCc1ccccc1 (some centres undefined)", "recorded value": -0.61}
{"compound": "CC(C)CCN1CCCN(Cc2ccc(C(=O)Nc3ccc(C(C)(C)C)cc3)cc2)CC1", "recorded value": 1.41}
{"compound": "COC(=O)Cn1c2ccccc2c2c(N)c(C(=O)OC)c(C)nc21", "recorded value": -0.45}
{"compound": "O=C(Cn1c(CCc2cccc(F)c2F)nc(=O)c2ccccc21)N(CCN1CCCC1)Cc1ccc(-c2ccc(C(F)(F)F)cc2)cc1", "recorded value": -4.3}
{"compound": "Cc1c(C(=O)Nc2cc(Sc3ccc(F)cc3)cc([N+](=O)[O-])c2)sc2ncn(Cc3cccc(F)c3)c(=O)c12", "recorded value": 7.11}
{"compound": "CCCc1ccc(NC(=O)c2ccc(CN3CCCN(Cc4cccc(O)c4)CC3)cc2)cc1", "recorded value": 3.95}
{"compound": "Cn1c(-c2ccccc2)cc2c3c(N)nc(N)nc3ccc21", "recorded value": 98.2}
{"compound": "COc1ccc(NC(=O)[C@H](CC(C)C)Nc2cc(C)nc(NCCc3ccc(F)cc3)n2)cc1", "recorded value": 3.65}

----------
Listing of recorded inhibition by entry.
Target: Glucose transporter (Leishmania mexicana) (UniProt O61059)
Assay: ST_JUDE_LEISH: Cytotoxicity at 2uM final concentration against transgenic Leishmania Mexicana promastigotes LmGT2 that are glucose transport deficient and complemented with the L. Mexicana glucose transporter 2. Activity is measured by DNA content using SYBR green in vitro
Assay type: functional

{"smiles record": "COc1ccc2nccc([C@@H](O)CN3CCC(NCc4ccc5sc(=O)[nH]c5c4)CC3)c2c1", "unit of measurement": "%", "inhibition": 1.2}
{"smiles record": "CN1CCN(c2cccc(-c3nnc(-c4ccc(OCC(=O)NCc5ccc(C(F)(F)F)cc5)c([N+](=O)[O-])c4)o3)c2)CC1", "unit of measurement": "%", "inhibition": -0.17}
{"smiles record": "Cc1ccc(OCCCCON2C(=N)N=C(N)NC2(C)C)cc1C", "unit of measurement": "%", "inhibition": 0.54}
{"smiles record": "CCOC(=O)CCCOc1cc(Cc2cnc(N)nc2N)cc(OC)c1OC", "unit of measurement": "%", "inhibition": 7.18}
{"smiles record": "Cc1cc(NCCCCCCNc2cc(C)nc3c(C)cccc23)c2cccc(C)c2n1", "unit of measurement": "%", "inhibition": 0.85}
{"smiles record": "COc1ccc2nccc(N3CCC(NCc4ccc5c(n4)NC(=O)CS5)CC3)c2n1", "unit of measurement": "%", "inhibition": 2.01}
{"smiles record": "COc1cc(NC2=NS(=O)(=O)c3cc(Cl)ccc3N2C)cc(OC)c1OC", "unit of measurement": "%", "inhibition": 7.53}
{"smiles record": "COc1ccc(NC(=O)c2ccc(-c3cc(NC(=O)c4ccnc(N5CCCC5)c4)ccc3C)s2)cc1N1CCN(C)CC1", "unit of measurement": "%", "inhibition": -1.93}
{"smiles record": "CC(C)CC(=O)N1CCNC[C@@H]1C(=O)NCc1ccc(Cl)c(Cl)c1", "unit of measurement": "%", "inhibition": 3.02}

Data origin: ChEMBL document CHEMBL3433997
